// values below are reported Inhibition
Test system: HepG2
Assay: GSK_TCMDC: Percent inhibition of human HepG2 cell line. Test compounds present at 10uM.
Assay type: functional
Express the result in % but write the number alone.

Cn1c(-c2ccccc2)cc2c3c(=O)cc(C(F)(F)F)[nH]c3ccc21    21

Please find the next molecule below.
Assay HepG2, sample O=C1C(=Cc2c(O)ccc3ccccc23)SC(=NCc2ccccc2)N1Cc1ccccc1 , Inhibition read: 0

====

Test system: Plasmodium falciparum
Assay: GSK_TCMDC: Inhibition of Plasmodium falciparum 3D7 in whole red blood cells, using parasite LDH activity as an index of growth. Test compounds present at 2uM
Assay type: functional
measure: Inhibition (%)
Express the result in % but write the number alone.

Cc1cc(N[C@@H](Cc2ccccc2)C(=O)NCCOc2ccccc2)nc(NCCc2cccs2)n1.O=C(O)C(F)(F)F    95
CCN(CC)CCN(Cc1ccc(-c2ccc(Cl)cc2)cc1)C(=O)Cn1c(CCc2cccc(F)c2F)nc(=O)c2ccccc21.O=C(O)C(O)C(O)C(=O)O    100
CC(C)C[C@H](NC(=O)[C@H](Cc1ccccc1)N(C[C@H](Cc1ccccc1)NC(=O)OC(C)(C)C)C(=O)C(F)(F)F)C(=O)NC1CCN(Cc2ccccc2)CC1    92

GET /value?item= CCc1cc(-c2n[nH]c(C(F)(F)F)c2-c2ccccc2)c(O)cc1OC &field=Inhibition returns 84

GET /value?item= Cc1cccc2nc(-c3cccc(-c4ccc(NC(=O)COC(C)C)cc4)c3)[nH]c12 &field=Inhibition returns 82

GET /value?item= CCn1c(-c2nonc2N)nc2c(-c3ccccc3)ncc(OCCCNCCCN3CCOCC3)c21.O=C(O)C(F)(F)F &field=Inhibition returns 100

GET /value?item= Cc1csc(NC(=O)c2cn(-c3ccccc3)nc2-c2cccs2)n1 &field=Inhibition returns 95

GET /value?item= CN(C)Cc1c(O)ccc2[nH]c(-c3ccc(OC(F)(F)F)cc3)nc12 &field=Inhibition returns 100

GET /value?item= CC(=O)Nc1nc(C(=O)Nc2cccc(-c3ccc(-c4nc5cc(F)ccc5[nH]4)cc3)c2)cs1 &field=Inhibition returns 100

GET /value?item= CC(C)(C)c1ccc2[nH]c(-c3ccc(C(=O)NCc4cccc(C(F)(F)F)c4)cc3)nc2c1 &field=Inhibition returns 98

GET /value?item= O=C(Nc1cccc(Cl)c1)N[C@H]1CCN(Cc2ccc(OCCCN3CCCCC3)cc2)C1 &field=Inhibition returns 99

GET /value?item= O=C(/C=C/c1ccccc1O)N1CCC(CCN2CCC(c3c[nH]c4ccccc34)CC2)CC1 &field=Inhibition returns 100

GET /value?item= O=C(Nc1nc(-c2ccccn2)cs1)c1ccc(S(=O)(=O)N2CCc3ccccc32)cc1 &field=Inhibition returns 89

GET /value?item= O=C(Cc1n[nH]c(=O)c2ccccc12)Nc1cccc(C(=O)Nc2cccc(C(F)(F)F)c2)c1 &field=Inhibition returns 97

GET /value?item= O=C(O)C(F)(F)F.O=S(=O)(/C=C/c1ccccc1)N(Cc1ccc(-c2ccc(CNCCc3ccccn3)cc2)cc1)CC1CCCCN1 (stereo unspecified) &field=Inhibition returns 100

GET /value?item= Cn1nc(C(F)(F)F)c(-c2ccc(F)cc2)c1NC(=O)Nc1ccccc1 &field=Inhibition returns 100
